# TEST SUMMARY: Solubility in water
RECORDED ENDPOINT: solubility

[in] Given the compound O=C(O)Cc1ccccc1Nc1c(Cl)cccc1Cl , write its reported solubility.
[out] ~30 mg/mL

Values compiled from patent EP0256258A2.
